B1: MED27 (parent)
chain: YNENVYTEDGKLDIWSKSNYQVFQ

Variants of: B1
Assay: protein stability index of a GFP-peptide fusion (GPS, HEK-293T) (PSI 1-6); higher = more stable;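 further: lentivirally expressed fusions sorted by FACS into six bins by GFP to DsRed ratio, PSI derived from sequencing read proportions per bin multiplied by bin number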
Settings: c terminus: a fixed tail appended
# label = y if protein stability index >= 2 else n

sequenceInput: YNENVYTEDGYLDIWSKSNYQVFQ
labelValue: n
//
sequenceInput: YNENKYTEDGKLDIWSKSNYQVFQ
labelValue: y
//
sequenceInput: YNENVYTEDGKLDIWSKENYQVFQ
labelValue: y
//
sequenceInput: YNENVYTEDGKLDIWSKSNYQVYQ
labelValue: y
//
sequenceInput: YNENVYTEDGKLDIWSKSNYQVQQ
labelValue: y
//
sequenceInput: DNENVYTEDGKLDIWSKSNYQVFQ
labelValue: y
//
sequenceInput: YNENVYTEDGKLDIYSKSNYQVFQ
labelValue: y
//
sequenceInput: YNENAYTEDGKLDIWSKSNYQVFQ
labelValue: y
//
sequenceInput: YNENVITEDGKLDIWSKSNYQVFQ
labelValue: y
//
sequenceInput: YNENVYTEDGKLDIKSKSNYQVFQ
labelValue: y
//
sequenceInput: YNLNVYTEDGKLDIWSKSNYQVFQ
labelValue: n
//
sequenceInput: KNENVYTEDGKLDIWSKSNYQVFQ
labelValue: y
//
sequenceInput: YNETVYTEDGKLDIWSKSNYQVFQ
labelValue: y
//
sequenceInput: YNENVYTEDIKLDIWSKSNYQVFQ
labelValue: n
//
sequenceInput: YNFNVYTEDGKLDIWSKSNYQVFQ
labelValue: n
//
sequenceInput: YNENVYTEDGKLDAWSKSNYQVFQ
labelValue: y
//
sequenceInput: YNENVYTEDGKLDIWSKSNYQVSQ
labelValue: n
//
sequenceInput: YNENVYTEDGKLDIWSKSMYQVFQ
labelValue: n
//
sequenceInput: YNENVYTEMGKLDIWSKSNYQVFQ
labelValue: n
//
sequenceInput: YNENVYTEDGKLDIWSKSPYQVFQ
labelValue: n
//
sequenceInput: YAENVYTEDGKLDIWSKSNYQVFQ
labelValue: y
//
sequenceInput: YNTNVYTEDGKLDIWSKSNYQVFQ
labelValue: n
//
sequenceInput: YNENVYTEDGKLDIWSKSNYQGFQ
labelValue: y
//
sequenceInput: YNENVYTEDGKLVIWSKSNYQVFQ
labelValue: y
//
sequenceInput: YNENVYTEDGKLDDWSKSNYQVFQ
labelValue: y
//
sequenceInput: YNENVYTEDGKLDIWSKCNYQVFQ
labelValue: n
//
sequenceInput: YNENVYTEDGKLDIWTKSNYQVFQ
labelValue: y
//
sequenceInput: YNENVYTEDGKEDIWSKSNYQVFQ
labelValue: y
//
sequenceInput: YNENVYTEDGKLDIWSFSNYQVFQ
labelValue: n
//
sequenceInput: YNENVYTEDGKLDIWSKSNYQVNQ
labelValue: y
//
sequenceInput: YNENVYHEDGKLDIWSKSNYQVFQ
labelValue: y
//
sequenceInput: YNENVYTEDGKLDIWSKSNYQWFQ
labelValue: n
//
sequenceInput: TNENVYTEDGKLDIWSKSNYQVFQ
labelValue: y
//
sequenceInput: YNENVYTEDGKLDIWSKWNYQVFQ
labelValue: n
//
sequenceInput: YNENVYTEDGKLDIWSKSNYQVFM
labelValue: n
//
sequenceInput: YNENVYTEDGKLDIWSKSNYQVFP
labelValue: n
//
sequenceInput: YNENVYTEDGKVDIWSKSNYQVFQ
labelValue: y
//
sequenceInput: YNENVYTEDGKLDIWSKFNYQVFQ
labelValue: n
//
sequenceInput: YNENVYTEDGKLSIWSKSNYQVFQ
labelValue: n
//
sequenceInput: YNESVYTEDGKLDIWSKSNYQVFQ
labelValue: n
//
sequenceInput: YNENVYTEDGKLDIWSKSNVQVFQ
labelValue: y
//
sequenceInput: YNENVYTETGKLDIWSKSNYQVFQ
labelValue: n
//
sequenceInput: YNENVYTEDGKLDIWSKSNYLVFQ
labelValue: y
//
sequenceInput: YEENVYTEDGKLDIWSKSNYQVFQ
labelValue: y
